# system-tested: BTK (Homo sapiens)
# run-description: In vitro BTK inhibition (no preincubation)
# Assay type: biochemical
# condition-details: Table 17
pIC50: −log10 of the molar value.
quantity: pIC50

For orientation, consider the following solved cases.
Exercise: Identify measured pIC50 obtained with BTK (Homo sapiens) for Nc1ncnc2c1c(-c1ccc(Oc3ccccc3)cc1)nn2[C@@H]1CCCN(S(=O)(=O)c2c(F)c(F)c(F)c(F)c2OC2CC2)C1 .
Key: 6.00 to 7.00

Exercise: State measured pIC50 of the compound Nc1ncnc2c1c(-c1ccc(Oc3ccccc3)cc1)nn2CCCNS(=O)(=O)c1c(F)c(F)c(F)c(F)c1F with BTK (Homo sapiens).
Key: 8.00 to 10.00

Exercise: Report pIC50 under test system BTK (Homo sapiens) for Nc1ncnc2c1c(-c1ccc(Oc3ccccc3)cc1)nn2[C@@H]1CCCN(S(=O)(=O)c2c(F)c(F)c(F)c(F)c2OCC(F)(F)F)C1 .
Key: 6.00 to 7.00

The record that follows has no pIC50 shown yet.
Exercise: Retrieve pIC50 on BTK (Homo sapiens); query Nc1ncnc2c1c(-c1ccc(Oc3ccccc3)cc1)nn2C1CN(S(=O)(=O)c2c(F)c(F)c(F)c(F)c2F)C1
Key: 8.00 to 10.00

###

# Tested on: tubulin
# run-description: Tubulin polymerization assay; also: test concentration or dose not given here
# Format: biochemical
# condition-details: Vmax normalized to tubulin only control
quantity: % Inhibition

Worked cases, % Inhibition given:
Exercise: Print tubulin % Inhibition for COc1ccc(NS(=O)(=O)c2c(F)c(F)c(F)c(F)c2OCC2COC2)cc1F [Compound I-73] .
Key: A (<10%)

Exercise: Quote tubulin % Inhibition for entry CNc1c(F)c(F)c(F)c(F)c1S(=O)(=O)Nc1ccc(OC)c(F)c1 [Compound I-86] .
Key: A (<10%)

Exercise: Return reported % Inhibition for target or system tubulin, item COc1ccc(NS(=O)(=O)c2c(O)c(F)c(F)c(F)c2F)cc1F [Compound I-63] .
Key: A (<10%)

Exercise: Provide the reported % Inhibition (system: tubulin) for COc1ccc(NS(=O)(=O)c2c(F)c(F)c(F)c(F)c2OCc2ccccc2)cc1F [Compound I-62]
Key: A (<10%)

Further cases:
Exercise: # return % Inhibition of COc1ccc(NS(=O)(=O)c2c(F)c(F)c(F)c(F)c2Oc2ccc(O)cc2)cc1F [Compound I-77] (system: tubulin)
Key: A (<10%)

Exercise: Fetch value of % Inhibition on tubulin for COc1ccc(NS(=O)(=O)c2c(F)c(F)c(F)c(F)c2OC(C)C)cc1F [Compound I-61] .
Key: A (<10%)

Exercise: Write down the reported % Inhibition (system: tubulin) of COc1ccc(NS(=O)(=O)c2c(F)c(F)c(F)c(F)c2OC(F)F)cc1F [Compound I-65]
Key: C (>20%)

Exercise: Consider the compound COc1ccc(NS(=O)(=O)c2c(F)c(F)c(F)c(F)c2F)cc1F [Batabulin, batabulin, reference compound] tested on tubulin; state its % Inhibition.
Key: C (>20%)

Exercise: Supply % Inhibition measured with tubulin for COc1ccc(NS(=O)(=O)c2c(F)c(F)c(F)c(F)c2OCC2CC2)cc1F [Compound I-71] .
Key: A (<10%)

Exercise: // fetch % Inhibition; item: COc1ccc(NS(=O)(=O)c2c(F)c(F)c(F)c(F)c2OC)cc1F [Compound I-64] ; system: tubulin
Key: A (<10%)

Exercise: Please respond with reported % Inhibition (system tubulin) for COc1ccc(NS(=O)(=O)c2c(F)c(F)c(F)c(F)c2OC2COC2)cc1F [Compound I-72] .
Key: A (<10%)

Exercise: Provide tubulin % Inhibition reading for CCOc1c(F)c(F)c(F)c(F)c1S(=O)(=O)Nc1ccc(OC)c(F)c1 [Compound I-85] .
Key: A (<10%)

Exercise: Please look at COc1ccc(CN(Cc2ccc(OC)cc2)S(=O)(=O)c2c(O)c(F)c(F)c(F)c2F)cc1 [Compound I-82] and tell me its recorded % Inhibition on tubulin.
Key: B (10-20%)

Exercise: State the measured % Inhibition (tubulin) of COc1ccc(NS(=O)(=O)c2c(F)c(F)c(F)c(F)c2C(=O)C(F)(F)F)cc1F [Compound I-90]
Key: A (<10%)

Exercise: Specify % Inhibition for COc1ccc(NS(=O)(=O)c2c(F)c(F)c(F)c(F)c2OC2CCC2)cc1F [Compound I-69] , system tubulin.
Key: A (<10%)

Exercise: Enter recorded % Inhibition with tubulin for COc1ccc(NS(=O)(=O)c2c(F)c(F)c(F)c(F)c2OC2CC2)cc1F [Compound I-75] here.
Key: B (10-20%)

Exercise: Enter measured % Inhibition, system tubulin, for the compound shown: COc1ccc(NS(=O)(=O)c2c(F)c(F)c(F)c(F)c2Oc2ccccc2)cc1F [Compound I-76]
Key: C (>20%)

###

# Test system: tubulin
# run-description: Tubulin polymerization assay; also: test concentration or dose not given here
# Type: biochemical
# condition-details: degree of polymerization relative to tubulin control
quantity: % D.O.P.

Worked set:
Exercise: Please give measured % D.O.P. of the following entry: COc1ccc(NS(=O)(=O)c2c(F)c(F)c(F)c(F)c2OCF)cc1F
Key: B (< 85%)

Exercise: Tell me measured % D.O.P. for COc1ccc(NS(=O)(=O)c2c(F)c(F)c(F)c(F)c2F)cc1F [Batabulin, batabulin, reference compound] please.
Key: B (< 85%)

Exercise: Please list % D.O.P. recorded for the compound CNc1c(F)c(F)c(F)c(F)c1S(=O)(=O)Nc1ccc(OC)c(F)c1
Key: A (>85%)

Exercise: Tell me measured % D.O.P. for COc1ccc(NS(=O)(=O)c2c(O)c(F)c(F)c(F)c2F)cc1F please.
Key: A (>85%)

Exercise: Give % D.O.P. for COc1ccc(NS(=O)(=O)c2c(F)c(F)c(F)c(F)c2C(=O)C(F)(F)F)cc1F
Key: A (>85%)

Continuing:
Exercise: Respond only with % D.O.P. recorded for COc1ccc(NS(=O)(=O)c2c(F)c(F)c(F)c(F)c2OCCF)cc1F
Key: B (< 85%)

###

# System: tubulin
# run-description: Tubulin polymerization assay; also: test concentration or dose not given here
# Type: biochemical
# condition-details: degree of polymerization relative to tubulin control
quantity: % D.O.P.

Please review the following examples before continuing.
Exercise: Kindly indicate its recorded % D.O.P.. Item: COc1ccc(NS(=O)(=O)c2c(F)c(F)c(F)c(F)c2OCC2COC2)cc1F
Key: A (>85%)

Exercise: Complete the entry with % D.O.P. for COc1ccc(NS(=O)(=O)c2c(F)c(F)c(F)c(F)c2OCC(F)F)cc1F
Key: B (< 85%)

Exercise: Respond only with % D.O.P. recorded for COc1ccc(NS(=O)(=O)c2c(F)c(F)c(F)c(F)c2Oc2ccc(O)cc2)cc1F
Key: A (>85%)

Exercise: Complete the entry with % D.O.P. for COc1ccc(NS(=O)(=O)c2c(F)c(F)c(F)c(F)c2OC(C)C)cc1F
Key: A (>85%)

Exercise: Assign % D.O.P. to the following record: COc1ccc(CNc2c(F)c(F)c(F)c(F)c2S(=O)(=O)Nc2ccc(OC)c(F)c2)cc1
Key: A (>85%)

Exercise: Return % D.O.P. (reported value) for this molecule: COc1ccc(Oc2c(F)c(F)c(F)c(F)c2S(=O)(=O)Nc2ccc(OC)c(F)c2)cc1
Key: A (>85%)

Exercise: Note % D.O.P. for the molecule shown: COc1ccc(NS(=O)(=O)c2c(F)c(F)c(F)c(F)c2OC2COC2)cc1F
Key: A (>85%)

--- query ---
Exercise: Input COc1ccc(NS(=O)(=O)c2c(F)c(F)c(F)c(F)c2OC2CC2)cc1F , output reported % D.O.P..
Key: B (< 85%)

###

Item-by-item account of IC50
# system-tested: BTK (Homo sapiens, UniProt Q06187)
# Sequence (Q06187 whole entry, species assumed): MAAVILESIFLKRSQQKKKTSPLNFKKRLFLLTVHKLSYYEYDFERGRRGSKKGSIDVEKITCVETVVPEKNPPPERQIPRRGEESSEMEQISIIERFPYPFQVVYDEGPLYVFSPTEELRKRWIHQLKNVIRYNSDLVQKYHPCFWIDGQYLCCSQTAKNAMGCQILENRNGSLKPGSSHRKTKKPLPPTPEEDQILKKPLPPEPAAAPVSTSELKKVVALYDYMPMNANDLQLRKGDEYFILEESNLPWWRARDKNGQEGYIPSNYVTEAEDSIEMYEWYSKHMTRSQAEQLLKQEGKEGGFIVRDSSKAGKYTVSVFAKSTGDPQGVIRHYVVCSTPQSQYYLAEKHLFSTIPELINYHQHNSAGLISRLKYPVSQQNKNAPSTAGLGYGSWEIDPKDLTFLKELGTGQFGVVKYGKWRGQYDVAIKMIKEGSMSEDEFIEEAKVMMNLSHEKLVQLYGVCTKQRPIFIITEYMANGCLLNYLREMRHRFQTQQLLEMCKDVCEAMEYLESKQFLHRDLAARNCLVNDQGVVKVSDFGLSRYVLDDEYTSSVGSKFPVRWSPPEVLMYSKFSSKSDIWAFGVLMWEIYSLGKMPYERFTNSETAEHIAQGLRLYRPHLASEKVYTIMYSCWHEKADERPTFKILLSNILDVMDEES
# run-description: Selected kinase inhibition, BTK (Table 6)
# Assay type: biochemical

Look over these answered cases.
Exercise: Given Nc1ncnc2c1c(-c1ccc(Oc3ccccc3)cc1)nn2[C@@H]1CCCN(S(=O)(=O)c2c(F)c(F)c(F)c(F)c2OC2CC2)C1 , report its IC50 on BTK (Homo sapiens, UniProt Q06187).
Key: 100 to 1000 nM

Exercise: Enter measured IC50, system BTK (Homo sapiens, UniProt Q06187), for the molecule shown: Nc1ncnc2c1c(-c1ccc(Oc3ccccc3)cc1)nn2[C@@H]1CCCN(S(=O)(=O)c2c(F)c(F)cc(F)c2F)C1
Key: 100 to 1000 nM

Exercise: Provide measured IC50 on BTK (Homo sapiens, UniProt Q06187) for Nc1ncnc2c1c(-c1ccc(Oc3ccccc3)cc1)nn2[C@@H]1CCCN(S(=O)(=O)c2cc(F)c(F)c(F)c2F)C1 please.
Key: 10 to 100 nM

Continuing:
Exercise: Recall the reported IC50 of Nc1ncnc2c1c(-c1ccc(Oc3ccccc3)cc1)nn2[C@H]1CCCN(S(=O)(=O)c2c(F)c(F)c(F)c(F)c2F)C1 on BTK (Homo sapiens, UniProt Q06187) and write it down.
Key: 100 to 1000 nM

Exercise: Lab note: BTK (Homo sapiens, UniProt Q06187) assay, enter IC50 for Nc1ncnc2c1c(-c1ccc(Oc3ccccc3)cc1)nn2S(=O)(=O)c1c(F)c(F)c(F)c(F)c1F here
Key: 100 to 1000 nM
